- TESTED_TARGET: T1, Recombinant purified human PD-1 protein, residues Leu25-Thr168, with a C-terminal 6-His tag (Homo sapiens, UniProt Q15116)
- T1 construct: programmed cell death protein 1 (PD-1), human, residues Leu25-Thr168; also called programmed cell death protein 1; PD-1-His monomer; source: bought: R&D Systems (catalog# 8986-PD, lot# DDJM0417041)
- T1 sequence (Q15116 25-168): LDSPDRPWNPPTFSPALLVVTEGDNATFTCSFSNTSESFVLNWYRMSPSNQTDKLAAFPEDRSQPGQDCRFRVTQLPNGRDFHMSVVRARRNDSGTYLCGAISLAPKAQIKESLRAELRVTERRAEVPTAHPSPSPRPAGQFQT
- PROCEDURE_TEXT: SPR; Biacore 8K, CMD-200M chip (3D-hydrogel); mAb captured on amine-coupled goat anti-human IgG Fc, PD-1-His monomer as analyte (100 nM top, 3-fold dilutions), 1200 s dissociation; 25 C, HBS-EP+ pH 7.4; 1:1 Langmuir fit, apparent constants
- CONDITION_LABEL: both partners purified
RESULT_TYPE: kon (M⁻¹ s⁻¹)
Quick note: give the figure in M⁻¹ s⁻¹, leave out the unit.

Completed entries (count: 4):
| BINDER | kon, M⁻¹ s⁻¹ |
| --- | --- |
| mAb17 (antibody, V domains shown, IgG4; also called analog of camrelizumab; camre; source: HEK293 suspension cells, cotransfected, purified (Protein A)) VH: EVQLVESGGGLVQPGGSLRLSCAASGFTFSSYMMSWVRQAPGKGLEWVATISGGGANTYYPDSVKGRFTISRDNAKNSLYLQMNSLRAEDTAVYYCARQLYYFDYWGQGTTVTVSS VL: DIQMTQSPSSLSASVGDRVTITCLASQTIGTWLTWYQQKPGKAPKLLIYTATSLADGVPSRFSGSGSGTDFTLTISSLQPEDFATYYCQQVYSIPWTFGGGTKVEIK | 123000 |
| mAb04 (antibody, V domains shown, IgG4; also called analog of retifanlimab; retifan; source: HEK293 suspension cells, cotransfected, purified (Protein A)) VH: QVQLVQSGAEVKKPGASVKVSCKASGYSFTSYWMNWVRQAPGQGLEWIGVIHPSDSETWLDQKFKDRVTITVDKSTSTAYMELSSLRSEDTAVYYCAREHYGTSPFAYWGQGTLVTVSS VL: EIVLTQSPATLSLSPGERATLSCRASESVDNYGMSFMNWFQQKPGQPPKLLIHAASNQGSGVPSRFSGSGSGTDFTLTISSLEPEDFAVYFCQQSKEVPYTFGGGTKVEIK | 435000 |
| mAb23 (antibody, V domains shown, IgG4; also called analog of cemiplimab; cemip; source: HEK293 suspension cells, cotransfected, purified (Protein A)) VH: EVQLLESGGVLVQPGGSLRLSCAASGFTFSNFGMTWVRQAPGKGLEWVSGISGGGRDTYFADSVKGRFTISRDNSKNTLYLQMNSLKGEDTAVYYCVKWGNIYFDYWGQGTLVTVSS VL: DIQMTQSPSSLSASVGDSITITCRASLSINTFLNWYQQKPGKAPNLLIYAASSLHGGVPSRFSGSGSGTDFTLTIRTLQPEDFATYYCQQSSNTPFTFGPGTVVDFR | 105000 |
| mAb16 (antibody, V domains shown, IgG4; also called analog of dostarlimab; dostar; source: HEK293 suspension cells, cotransfected, purified (Protein A)) VH: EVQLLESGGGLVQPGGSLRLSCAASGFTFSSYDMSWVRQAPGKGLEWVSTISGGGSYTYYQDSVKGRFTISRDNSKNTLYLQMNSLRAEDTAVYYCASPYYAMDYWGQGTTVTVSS VL: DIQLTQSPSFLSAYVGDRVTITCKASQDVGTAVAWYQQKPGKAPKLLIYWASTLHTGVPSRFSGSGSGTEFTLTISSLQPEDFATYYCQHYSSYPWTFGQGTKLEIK | 176000 |

Prompt line: Give kon for the following binder: mAb03 (antibody, V domains shown, IgG4; also called analog of tislelizumab; tisle; source: HEK293 suspension cells, cotransfected, purified (Protein A)) VH: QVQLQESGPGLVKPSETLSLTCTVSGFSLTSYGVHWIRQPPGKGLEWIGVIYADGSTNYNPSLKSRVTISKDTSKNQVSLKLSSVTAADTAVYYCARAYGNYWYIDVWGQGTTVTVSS VL: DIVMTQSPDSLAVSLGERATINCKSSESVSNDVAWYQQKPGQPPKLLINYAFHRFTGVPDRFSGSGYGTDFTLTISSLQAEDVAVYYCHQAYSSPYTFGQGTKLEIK
Response line: 257000
